Field: Tumor inhibition rate (x ± SD). Provide a value for each of the compounds that follow.
test system: breast cancer MCF-7; test: In vivo antitumor activity, breast cancer MCF-7 in nude mice; details: MCF-7 in female nude mice, 10 mg (platinum)/kg, once a week, 4 times, tumor weighed 4 weeks later

# compound, measurement.type, obs.value
records = [
    ("CCN(CC)CCCC1CC(=O)[O][Pt]2([NH]C3CCC3[NH]2)[O]C1=O (stereo not drawn) [Compound 16]", "Tumor inhibition rate (x ± SD)", "70.4 ± 10.81 9%"),
    ("CCN(CC)CCC1CC(=O)[O][Pt]2([NH]CC3(CCOCC3)C[NH]2)[O]C1=O (stereo not drawn) [Compound 26]", "Tumor inhibition rate (x ± SD)", "76.4 ± 14.85 9%"),
    ("CN(C)CCC(CC(=O)[O-])C(=O)[O-].NCCN.[Pt+2] (stereo not drawn) [Compound 18]", "Tumor inhibition rate (x ± SD)", "71.8 ± 12.01 9%"),
    ("CCCN(CCC)CCCC(CC(=O)[O-])C(=O)[O-].NCCCCN.[Pt+2] (stereo not drawn) [Compound 20]", "Tumor inhibition rate (x ± SD)", "66.7 ± 10.61 9%"),
    ("CCN(CC)CCCCC1CC(=O)[O][Pt]2([NH]C3CCCCC3[NH]2)[O]C1=O.O=P(O)(O)O (stereo not drawn) [Compound 29]", "Tumor inhibition rate (x ± SD)", "82.2 ± 10.82 9%"),
]

Moving on to another compound below.
Fill in reported Tumor inhibition rate (x ± SD) for this entry: CN(C)CCC1CC(=O)[O][Pt]2([NH]CC(CO)(CO)C[NH]2)[O]C1=O (stereo not drawn) [Compound 22]
70.8 ± 10.12 9%
